Listed compounds paired with reported Biodistribution: Liver
- Test system: PIP tumor and PC3 tumor
- ASSAY: Biodistribution of 125I labeled compounds 17, 18, 26 and 27 in tumor bearing nude mice
- Format: in vivo
- MEASUREMENT_PARAMETERS: 4 h
RECORDED_ENDPOINT: Biodistribution: Liver (% ID/g)

{"COMPOUND": "O=C(O)CC[C@H](NC(=O)N[C@@H](CCCCNC(=O)[C@H](Cc1ccccc1)NC(=O)[C@H](CCC(=O)O)NC(=O)[C@H](CCC(=O)O)NC(=O)c1ccc([125I])cc1)C(=O)O)C(=O)O [[^125I]18]", "EXPERIMENTAL_TARGET": "PIP tumor and PC3 tumor", "TEST_VALUE": 2.62}
{"COMPOUND": "O=C(O)CC[C@H](NC(=O)N[C@@H](CCCCNC(=O)[C@H](Cc1ccccc1)NC(=O)[C@H](CCC(=O)O)NC(=O)c1ccc([125I])cc1)C(=O)O)C(=O)O [[^125I]17]", "EXPERIMENTAL_TARGET": "PIP tumor and PC3 tumor", "TEST_VALUE": 0.48}
{"COMPOUND": "O=C(O)CC[C@H](NC(=O)N[C@@H](CCCCNC(=O)[C@H](Cc1ccccc1)NC(=O)COc1ccc(C[C@H](NC(=O)[C@H](CCC(=O)O)NC(=O)[C@H](CCC(=O)O)NC(=O)c2ccc([125I])cc2)C(=O)O)cc1)C(=O)O)C(=O)O [[^125I]27]", "EXPERIMENTAL_TARGET": "PIP tumor and PC3 tumor", "TEST_VALUE": 1.28}
{"COMPOUND": "O=C(O)CC[C@H](NC(=O)N[C@@H](CCCCNC(=O)[C@H](Cc1ccccc1)NC(=O)COc1ccc(C[C@H](NC(=O)[C@H](CCC(=O)O)NC(=O)c2ccc([125I])cc2)C(=O)O)cc1)C(=O)O)C(=O)O [[^125I]26]", "EXPERIMENTAL_TARGET": "PIP tumor and PC3 tumor", "TEST_VALUE": 4.90}

* * *

- System: PSMA-positive cell line, PIP PC3
- ASSAY: In vitro cell uptake, PIP PC3 cells
- Format: cell-based
- MEASUREMENT_PARAMETERS: PIP PC3, 60 min
- Procedure: To determine the cell uptakes of the [^177Lu] labelled ligands, 5×10^5 cells/well were grown in 12-well plates in 1 mL of medium for 48 h. The cells were washed twice with PBS, and 900 μL fresh media were added. […] All samples were prepared in triplicate. […] Activity was measured in a gamma counter. Aliquots of the solution added to the cells were also measured for the calculation of the cellular uptake as % ID.
RECORDED_ENDPOINT: In vitro cell uptake (% ID per 5 × 10^5 cells)

{"COMPOUND": "O=C(O)CC[C@H](NC(=O)N[C@@H](CCCCNC(=O)[C@H](Cc1ccc2ccccc2c1)NC(=O)[C@H]1CC[C@H](CNC(=O)CN2CCN(CC(=O)O)CCN(CC(=O)O)CCN(CC(=O)O)CC2)CC1)C(=O)O)C(=O)O.[177Lu] [[^177Lu]PSMA-617, reference compound]", "RECORDED_ENDPOINT": "In vitro cell uptake", "UNIT_STRING": "% ID per 5 × 10^5 cells", "TEST_VALUE": 8.2}
{"COMPOUND": "O=C([O-])CN1CCN(C(CCC(=O)NCC(=O)NC(Cc2ccc(OCC(=O)NC(Cc3ccccc3)C(=O)NCCCCC(NC(=O)NC(CCC(=O)O)C(=O)O)C(=O)O)cc2)C(=O)O)C(=O)[O-])CCN(CC(=O)[O-])CCN(C(CCC(=O)NCC(=O)NC(P(=O)(O)O)P(=O)(O)O)C(=O)O)CC1.[177Lu+3] (centres unmarked) [[^177Lu]42]", "RECORDED_ENDPOINT": "In vitro cell uptake", "UNIT_STRING": "% ID per 5 × 10^5 cells", "TEST_VALUE": 8.6}
{"COMPOUND": "O=C(O)CCC(C(=O)O)N1CCN(CC(=O)O)CCN(C(CCC(=O)NCC(=O)N[C@@H](Cc2ccc(OCC(=O)N[C@@H](Cc3ccccc3)C(=O)NCCCC[C@H](NC(=O)N[C@@H](CCC(=O)O)C(=O)O)C(=O)O)cc2)C(=O)O)C(=O)O)CCN(CC(=O)O)CC1.[177Lu] (some centres unmarked) [[^177Lu]4]", "RECORDED_ENDPOINT": "In vitro cell uptake", "UNIT_STRING": "% ID per 5 × 10^5 cells", "TEST_VALUE": 13.4}
{"COMPOUND": "O=C(O)CC[C@H](NC(=O)N[C@@H](CCCCNC(=O)[C@H](Cc1ccccc1)NC(=O)COc1ccc(C[C@H](NC(=O)CNC(=O)CCC(C(=O)O)N2CCN(CC(=O)O)CCN(C(CCC(=O)NCCOCCOCCNC(=O)CCCc3ccc(I)cc3)C(=O)O)CCN(CC(=O)O)CC2)C(=O)O)cc1)C(=O)O)C(=O)O.[177Lu] (some centres unmarked) [[^177Lu]7]", "RECORDED_ENDPOINT": "In vitro cell uptake", "UNIT_STRING": "% ID per 5 × 10^5 cells", "TEST_VALUE": 11.4}
{"COMPOUND": "O=C(O)CC[C@H](NC(=O)N[C@@H](CCCCNC(=O)[C@H](Cc1ccccc1)NC(=O)COc1ccc(C[C@H](NC(=O)CNC(=O)CCC(C(=O)O)N2CCN(CC(=O)O)CCN(CC(=O)O)CCN(CC(=O)O)CC2)C(=O)NCC(=O)NC(P(=O)(O)O)P(=O)(O)O)cc1)C(=O)O)C(=O)O.[177Lu] (some centres unmarked) [[^177Lu]51]", "RECORDED_ENDPOINT": "In vitro cell uptake", "UNIT_STRING": "% ID per 5 × 10^5 cells", "TEST_VALUE": 17.4}
